Could you please report measured bioavailability for the items listed next?
- test.protocol: Oral bioavailability in Sprague-Dawley rat by LC-MS/MS analysis
- Type: ADME, organism-based
- experimental.parameters: in vivo
// units = %; emit number, no label

Return reported bioavailability; argument: `C[C@H](CCC(C)(C)O)[C@H]1CC[C@H]2[C@@H]3CC=C4C[C@@](C)(O)CC[C@]4(C)[C@H]3CC[C@]12C`
23

Name the recorded bioavailability for `CC[C@](C)(O)CC[C@@H](C)[C@H]1CC[C@H]2[C@@H]3CC=C4C[C@@](C)(O)CC[C@]4(C)[C@H]3CC[C@]12C` .
89

Endpoint output: bioavailability of `C[C@H](CC[C@](C)(O)C(F)(F)F)[C@H]1CC[C@H]2[C@@H]3CC=C4C[C@@](C)(O)CC[C@]4(C)[C@H]3CC[C@]12C` . Value?
28

Request the reported bioavailability associated with `CC(C)[C@@](C)(O)CC[C@@H](C)[C@H]1CC[C@H]2[C@@H]3CC=C4C[C@@](C)(O)CC[C@]4(C)[C@H]3CC[C@]12C`
116

====

What logD at 20 µM was measured for each of the following?
- test.protocol: Lipophilicity, logD of compound in MeOH at 20 uM by HPLC analysis
- Format: physicochemical

Could you tell me which logD at 20 µM is on file for `C[C@H](CC[C@](C)(O)C(F)(F)F)[C@H]1CC[C@H]2[C@@H]3CC=C4C[C@@](C)(O)CC[C@]4(C)[C@H]3CC[C@]12C` ?
6.2

Fill in the blank: the reported logD at 20 µM of `CC(C)[C@@](C)(O)CC[C@@H](C)[C@H]1CC[C@H]2[C@@H]3CC=C4C[C@@](C)(O)CC[C@]4(C)[C@H]3CC[C@]12C` is ____.
6.7

So what's the measured logD at 20 µM for this one? `CC[C@](C)(O)CC[C@@H](C)[C@H]1CC[C@H]2[C@@H]3CC=C4C[C@@](C)(O)CC[C@]4(C)[C@H]3CC[C@]12C`
6.5

Item under review: `C[C@H](CCC(C)(C)O)[C@H]1CC[C@H]2[C@@H]3CC=C4C[C@@](C)(O)CC[C@]4(C)[C@H]3CC[C@]12C` . Reported logD at 20 µM?
5

====

Field: clearance. Provide a value for each of the compounds that follow.
- test.protocol: Clearance in CD-1 mouse by LC-MS/MS analysis
- Format: ADME
- experimental.parameters: in vivo
Return type: number; implicit unit mL/min/kg.

Tell me the measured clearance of C[C@H](CC[C@](C)(O)C(F)(F)F)[C@H]1CC[C@H]2[C@@H]3CC=C4C[C@@](C)(O)CC[C@]4(C)[C@H]3CC[C@]12C [DALZANEMDOR] , please.
5

Form field: reported clearance of `C[C@H](CCC(C)(C)O)[C@H]1CC[C@H]2[C@@H]3CC=C4C[C@@](C)(O)CC[C@]4(C)[C@H]3CC[C@]12C`
18.3

====

- test.protocol: Metabolic stability in rat liver microsomes assessed as intrinsic clearance at 10 uM preincubated for 5 mins followed by NADPH addition and measured upto 65 mins by LC-MS/MS analysis
- Type: ADME, Microsome
- experimental.parameters: time < 70 min, read-out: CLH
Please respond with reported microsomal CLint at 10 µM for every item in the list.

What measured microsomal CLint at 10 µM goes with `C[C@H](CC[C@](C)(O)C(F)(F)F)[C@H]1CC[C@H]2[C@@H]3CC=C4C[C@@](C)(O)CC[C@]4(C)[C@H]3CC[C@]12C` ?
11 µL/min/mg

Requested field: microsomal CLint at 10 µM. Item: `CC[C@](C)(O)CC[C@@H](C)[C@H]1CC[C@H]2[C@@H]3CC=C4C[C@@](C)(O)CC[C@]4(C)[C@H]3CC[C@]12C`
2.7 µL/min/mg

Could you share which microsomal CLint at 10 µM value was measured for `C[C@H](CCC(C)(C)O)[C@H]1CC[C@H]2[C@@H]3CC=C4C[C@@](C)(O)CC[C@]4(C)[C@H]3CC[C@]12C` ?
35 µL/min/mg
